# Read-out: Thrombomodulin, THBD (gene 7056)
# experiment: BSK_3C_Thrombomodulin: BioMAP Diversity Plus: 3C Assay for Thrombomodulin Biomarker Activity (AID 2283029)
# measurement-setup: primary human endothelial cells (HUVEC); actives raise or lower the signal
Active and inactive are the calls of the source. The calls were made as follows: active = hit-call score of the fitted dose curve at least 0.9, where 1 is the maximum; inactive = score below 0.9.

molecule | outcome
CCNc1nc(Cl)nc(NC(C)(C)C#N)n1 | inactive
CCOP(=O)(NC(C)C)Oc1ccc(SC)c(C)c1 (configuration not stated) | inactive
Cc1ccn2nc(S(=O)(=O)Nc3c(F)cccc3F)nc2n1 | inactive
COc1cc(OC)nc(Sc2cccc(Cl)c2C(=O)O)n1 | inactive
CC(C1CC1)C(O)(Cn1cncn1)c1ccc(Cl)cc1 (configuration not stated) | inactive
CCCSP(=O)(OCC)Oc1ccc(Br)cc1Cl (configuration not stated) | inactive
CCOP(=S)(OCC)SCCSCC | inactive
